Biological target: HIV-1 YU-2 gp120 (HIV-1 (YU-2), UniProt P35961)
Experiment: SPR
Measured IC50 values are reported for all entries that follow.

# Binder, IC50
measured = [
    ("Fab m18 Y102A (HCDR3) (Fab, V domains shown) VH: VQLLESGPGVVKPSETLSLTCTVSGASVNNYYWTWVRQPPGKGLEWIGNVYDSGDTNYNPSLSSRLSLSMDTSKNQFSLRLSSVTAADTATYYCARYHRHFIRGPLSFDAWGRGTLVTVSS VL: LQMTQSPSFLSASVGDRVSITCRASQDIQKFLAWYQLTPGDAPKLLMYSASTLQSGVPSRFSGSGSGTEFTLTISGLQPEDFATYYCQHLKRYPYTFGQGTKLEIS", "> 1000 nM"),
    ("Fab m18 P61A (HCDR2) (Fab, V domains shown) VH: VQLLESGPGVVKPSETLSLTCTVSGASVNNYYWTWVRQPPGKGLEWIGNVYDSGDTNYNASLSSRLSLSMDTSKNQFSLRLSSVTAADTATYYCARYHRHFIRGPLSFDYWGRGTLVTVSS VL: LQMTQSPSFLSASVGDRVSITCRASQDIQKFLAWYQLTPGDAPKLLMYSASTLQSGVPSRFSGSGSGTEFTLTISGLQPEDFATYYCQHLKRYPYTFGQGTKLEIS", "> 1000 nM"),
    ("Fab m18 R93A (LCDR3) (Fab, V domains shown) VH: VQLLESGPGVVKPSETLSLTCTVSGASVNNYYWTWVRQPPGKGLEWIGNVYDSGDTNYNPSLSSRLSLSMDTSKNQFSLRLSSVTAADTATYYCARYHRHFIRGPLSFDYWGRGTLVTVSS VL: LQMTQSPSFLSASVGDRVSITCRASQDIQKFLAWYQLTPGDAPKLLMYSASTLQSGVPSRFSGSGSGTEFTLTISGLQPEDFATYYCQHLKAYPYTFGQGTKLEIS", "49.5 nM"),
]
